measurement-target: human TMEM16A (TMEM16Aabc variant) (Homo sapiens, UniProt Q5XXA6, DEL476-501, form not given)
Sequence (Q5XXA6 with tags, fused parts or gaps DEL476-501): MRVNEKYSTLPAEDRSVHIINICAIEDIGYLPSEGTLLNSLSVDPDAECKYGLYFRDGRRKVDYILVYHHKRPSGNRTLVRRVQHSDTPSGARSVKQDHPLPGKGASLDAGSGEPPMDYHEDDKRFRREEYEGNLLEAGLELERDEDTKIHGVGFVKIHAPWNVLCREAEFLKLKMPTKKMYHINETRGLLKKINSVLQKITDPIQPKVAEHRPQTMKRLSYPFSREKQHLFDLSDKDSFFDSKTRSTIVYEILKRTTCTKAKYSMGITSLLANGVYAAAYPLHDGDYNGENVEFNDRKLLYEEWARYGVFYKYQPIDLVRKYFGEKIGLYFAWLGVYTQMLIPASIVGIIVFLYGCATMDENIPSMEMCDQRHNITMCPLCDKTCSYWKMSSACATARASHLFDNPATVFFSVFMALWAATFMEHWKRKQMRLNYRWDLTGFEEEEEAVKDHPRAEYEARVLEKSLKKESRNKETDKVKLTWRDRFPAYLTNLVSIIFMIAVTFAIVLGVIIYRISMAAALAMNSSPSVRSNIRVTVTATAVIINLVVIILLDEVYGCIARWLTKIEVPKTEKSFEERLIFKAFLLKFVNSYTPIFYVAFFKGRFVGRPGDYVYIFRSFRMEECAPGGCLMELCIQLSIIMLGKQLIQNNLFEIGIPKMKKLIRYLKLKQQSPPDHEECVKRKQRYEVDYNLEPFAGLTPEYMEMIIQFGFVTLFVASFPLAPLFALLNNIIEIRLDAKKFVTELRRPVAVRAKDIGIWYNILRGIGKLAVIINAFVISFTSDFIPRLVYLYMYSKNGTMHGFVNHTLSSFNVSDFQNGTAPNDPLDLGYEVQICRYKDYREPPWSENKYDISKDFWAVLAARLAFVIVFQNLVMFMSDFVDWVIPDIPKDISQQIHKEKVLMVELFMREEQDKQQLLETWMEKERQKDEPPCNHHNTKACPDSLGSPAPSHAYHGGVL
measurement-description: Automated whole-cell patch clamp (Qpatch) TMEM16A potentiator assay in FRT cells stably expressing human TMEM16A
condition-label: calculated EC50, Qpatch TMEM16A current at +70 mV
pEC50: −log10 of the molar value.
// values below are reported pEC50
observable: pEC50

- Cc1ccc(O)c(CC(=O)Nc2ccnc(C(=O)NC(C)(C)C)c2)c1: 6.89
- CC(C)(C)NC(=O)c1cccc(NC(=O)Cc2cc(F)cc(F)c2O)c1: 6.00
- CC(C)(C)OC(=O)N1CCCC(NC(=O)c2cc(NC(=O)Cc3cc(Cl)ccc3O)ccn2)C1 (stereo not shown): 6.23
- CC(C)(C)NC(=O)c1cccc(NC(=O)Cc2cccc(F)c2O)c1: 5.79
- CC(C)(NC(=O)c1cc(NC(=O)Cc2ccccc2Cl)ccn1)C(F)F: 6.42
- CC(C)(C)NC(=O)c1cccc(NC(=O)Cc2cc(F)c(F)cc2O)c1: 6.51
- CC(C)NC(=O)c1cc(NC(=O)Cc2cc(F)ccc2O)ccn1: 6.38
- O=C(Cc1cc(Cl)ccc1O)Nc1ccnc(C(=O)N[C@@H]2CCC[C@@H]2O)c1: 6.37
- CC(C)(C)NC(=O)c1cccc(NC(=O)Cc2c(O)cccc2F)c1: 6.31
- CC(C)(C)c1ccc(CC(=O)Nc2ccnc(C(=O)N[C@H]3CCC[C@@H]3O)c2)cc1O: 7.40
- CC(C)(C)NC(=O)c1cccc(NC(=O)Cc2cccc(O)c2)c1: 5.82
- O=C(Cc1cc(Cl)ccc1O)Nc1ccnc(C(=O)NC2(CO)CCOCC2)c1: 6.41
- O=C(Cc1cc(Cl)ccc1O)Nc1ccnc(C(=O)N[C@H]2CCC[C@@H]2O)c1: 6.82
- CC(C)(C)NC(=O)c1cc(NC(=O)Cc2cc(C(F)(F)F)ccc2O)ccn1: 6.70
- CC(C)(C)NC(=O)c1ccc(F)c(NC(=O)Cc2cc(Cl)ccc2O)c1: 6.64
- CC(C)C(C)(C)NC(=O)c1cc(NC(=O)Cc2cc(Cl)ccc2O)ccn1: 7.00
- CCC(C)(C)NC(=O)c1cccc(NC(=O)Cc2ccccc2O)c1: 6.25
- C[C@](C#N)(CO)NC(=O)c1cc(NC(=O)Cc2cc(Cl)ccc2O)ccn1 (single isomer, unassigned) [Example 46a]: 6.96
- CC(C)(CCO)NC(=O)c1cc(NC(=O)Cc2cc(Cl)ccc2O)ccn1: 6.57
- CC(C)(C)NC(=O)c1cccc(NC(=O)Cc2cc(C#N)ccc2O)c1: 5.75
- CC(C)(C)NC(=O)c1cc(NC(=O)Cc2cc(F)ccc2O)ccn1: 6.66
- N#CC1(NC(=O)c2cc(NC(=O)Cc3ccc(Cl)c(O)c3)ccn2)CCOCC1: 6.96
- CC(C)(C)NC(=O)c1cc(NC(=O)Cc2ccc(Cl)c(O)c2)ccn1 [Example 3.14b]: 7.40
- N#CC1(NC(=O)c2cc(NC(=O)Cc3cc(Cl)ccc3O)ccn2)COC1: 6.46
- CC(C)(C)NC(=O)c1cc(NC(=O)Cc2c(O)cccc2Cl)ccn1: 7.15
- CCCC(C)(C)NC(=O)c1cc(NC(=O)Cc2cc(Cl)ccc2O)ccn1: 6.59
- CC(C)(C)NC(=O)c1cccc(NC(=O)Cc2ccccc2)c1: 5.41
- COCC(C)(C#N)NC(=O)c1cc(NC(=O)Cc2cc(Cl)ccc2O)ccn1 (stereo not shown): 6.48
- CC(C)(C)NC(=O)c1cc(NC(=O)C2CCc3c(Cl)ccc(O)c32)ccn1 (single isomer, unassigned) [Example 57b]: 6.17
- O=C(Cc1cc(F)ccc1F)Nc1ccnc(C(=O)NC23CCC(F)(C2)C3)c1: 6.27
- C#CC(C)(C)NC(=O)c1cc(NC(=O)Cc2cccc3cc[nH]c23)ccn1: 6.62
- C#CC(C)(C)NC(=O)c1cc(NC(=O)Cc2cc(Cl)ccc2O)ccn1: 7.70
- CC(C)(C)NC(=O)c1cc(NC(=O)Cc2cc(Cl)ccc2O)ccn1: 6.96
- CC(C)(C)NC(=O)c1cc(NC(=O)[C@@H]2CCc3ccccc32)ccn1 (single isomer, unassigned) [Example 21b]: 5.97
